Reference for the values: ChEMBL document CHEMBL5046273

assayDetails: AUC in Swiss Webster mouse blood at 40 mg/kg, ip by LC-MS/MS analysis
Assay type: ADME, organism-based
Design: dose 40 mg/kg
readoutKind: AUC (ng·h/mL)
# unit: ng·h/mL | format: bare number

# query: AUC of entry CC(C)(C)OC(=O)CC(O)/C=C/CCSSCC/C=C/C(O)CC(=O)OC(C)(C)C (stereo unspecified)
88.1

---

tgt: Histone deacetylase 2 (Homo sapiens)
Sequence (Q92769 whole entry): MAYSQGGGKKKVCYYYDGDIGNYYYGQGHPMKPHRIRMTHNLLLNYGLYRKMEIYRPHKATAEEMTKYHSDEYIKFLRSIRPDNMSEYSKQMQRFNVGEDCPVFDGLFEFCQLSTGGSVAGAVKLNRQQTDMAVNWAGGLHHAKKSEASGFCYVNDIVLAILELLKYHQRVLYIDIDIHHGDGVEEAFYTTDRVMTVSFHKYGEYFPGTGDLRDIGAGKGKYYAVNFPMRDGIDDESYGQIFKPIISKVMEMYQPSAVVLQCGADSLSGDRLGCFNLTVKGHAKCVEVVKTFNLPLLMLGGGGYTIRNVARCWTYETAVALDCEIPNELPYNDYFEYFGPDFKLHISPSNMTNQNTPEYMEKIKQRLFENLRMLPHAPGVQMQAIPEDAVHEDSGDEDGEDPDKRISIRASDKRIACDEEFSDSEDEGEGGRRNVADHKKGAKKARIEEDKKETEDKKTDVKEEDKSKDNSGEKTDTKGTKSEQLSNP
assayDetails: Inhibition of HDAC2 in human DU-145 cells assessed as increase in histone H3 acetylation after 24 hrs by immunofluorescence microscopy
Format: cell-based
readoutKind: IC50 (µM)
Return type: number; implicit unit µM.

For the molecule shown here, CC(C)(C)OC(=O)CC(O)/C=C/CCSSCC/C=C/C(O)CC(=O)OC(C)(C)C (stereo unspecified) , give the reported IC50.
10

---

assayDetails: Cmax in Swiss Webster mouse brain at 40 mg/kg, ip by LC-MS/MS analysis
Assay type: ADME, organism-based
Parameters: route intraperitoneal, dose 40 mg/kg
readoutKind: Cmax (ng/g)
Number in ng/g, nothing else.

Requested read-out: Cmax. Entry: CC(C)(C)OC(=O)CC(O)/C=C/CCSSCC/C=C/C(O)CC(=O)OC(C)(C)C (stereo unspecified)
82.5

---

assayDetails: Elimination rate in Swiss Webster mouse brain at 40 mg/kg, ip by LC-MS/MS analysis
Type: ADME, organism-based
readoutKind: k el (s⁻¹)
Quick note: give the figure in s⁻¹, leave out the unit.

So what does the record say about k el for CC(C)(C)OC(=O)CC(O)/C=C/CCSSCC/C=C/C(O)CC(=O)OC(C)(C)C (stereo unspecified) ?
0.000867

---

assayDetails: Tmax in Swiss Webster mouse brain at 40 mg/kg, ip by LC-MS/MS analysis
Format: ADME, organism-based
readoutKind: Tmax (min)
Please state the figure in min; there is no need to write the unit.

Requested read-out: Tmax. Entry: CC(C)(C)OC(=O)CC(O)/C=C/CCSSCC/C=C/C(O)CC(=O)OC(C)(C)C (stereo unspecified)
10

---

assayDetails: Cmax in Swiss Webster mouse liver at 40 mg/kg, ip by LC-MS/MS analysis
Assay type: ADME, organism-based
Design: route intraperitoneal, dose 40 mg/kg
readoutKind: Cmax (ng/g)
Give the quantity in ng/g, number only.

Any idea what its Cmax is? The compound is CC(C)(C)OC(=O)CC(O)/C=C/CCSSCC/C=C/C(O)CC(=O)OC(C)(C)C (stereo unspecified)
530

---

tgt: Histone deacetylase 8 (Homo sapiens)
Sequence (Q9BY41 whole entry): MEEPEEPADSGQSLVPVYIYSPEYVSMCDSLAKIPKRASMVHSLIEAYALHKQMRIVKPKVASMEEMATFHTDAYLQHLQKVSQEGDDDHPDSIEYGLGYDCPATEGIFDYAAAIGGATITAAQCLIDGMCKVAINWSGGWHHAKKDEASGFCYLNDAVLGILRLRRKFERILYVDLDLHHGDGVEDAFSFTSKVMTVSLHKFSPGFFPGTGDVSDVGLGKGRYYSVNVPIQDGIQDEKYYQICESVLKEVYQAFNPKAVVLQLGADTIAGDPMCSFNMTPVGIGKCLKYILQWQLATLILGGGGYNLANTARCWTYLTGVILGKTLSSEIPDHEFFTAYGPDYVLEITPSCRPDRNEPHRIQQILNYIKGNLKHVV
assayDetails: Inhibition of HDAC8 in human DU-145 cells assessed as increase in histone H3 acetylation after 24 hrs by immunofluorescence microscopy
readoutKind: pIC50
Expect pIC50 as a plain number equal to -log10 of the molar concentration.

# pIC50 lookup, item CC(C)(C)OC(=O)CC(O)/C=C/CCSSCC/C=C/C(O)CC(=O)OC(C)(C)C (stereo unspecified)
4.96

---

Can you tell me IC50 for the items I'm about to list?
tgt: UniProtKB Q92769
assayDetails: Inhibition of recombinant human full-length HDAC2 incubated for 10 mins by Glo-luminescence assay
# output: bare number, implied unit µM

I am curious: what IC50 value has been reported for O=C(CC(O)/C=C/CCSSCC/C=C/C(O)CC(=O)Nc1ccccc1)Nc1ccccc1 (stereo unspecified) ?
105

Record: CCCC[C@@H](NC(=O)CC(O)/C=C/CCSSCC/C=C/C(O)CC(=O)N[C@H](CCCC)C(=O)OC)C(=O)OC (stereo partly specified)
280

Repeat for the following compound: O=C(O)CC(O)/C=C/CCSSCC/C=C/C(O)CC(=O)O (stereo unspecified)
140

Please give the result for CC(C)(C)OC(=O)CC(O)/C=C/CCSSCC/C=C/C(O)CC(=O)OC(C)(C)C (stereo unspecified) too.
100

Try the compound CCCC[C@@H](NC(=O)CC(O)/C=C/CCSSCC/C=C/C(O)CC(=O)N[C@H](CCCC)C(=O)O)C(=O)O (stereo partly specified)
140
